Cited source: patent US8765730B2

Biological target: human GPBAR1 receptor (Homo sapiens, UniProt Q8TDU6)
Construct: expressed in transfected cells
Sequence (Q8TDU6 1-330): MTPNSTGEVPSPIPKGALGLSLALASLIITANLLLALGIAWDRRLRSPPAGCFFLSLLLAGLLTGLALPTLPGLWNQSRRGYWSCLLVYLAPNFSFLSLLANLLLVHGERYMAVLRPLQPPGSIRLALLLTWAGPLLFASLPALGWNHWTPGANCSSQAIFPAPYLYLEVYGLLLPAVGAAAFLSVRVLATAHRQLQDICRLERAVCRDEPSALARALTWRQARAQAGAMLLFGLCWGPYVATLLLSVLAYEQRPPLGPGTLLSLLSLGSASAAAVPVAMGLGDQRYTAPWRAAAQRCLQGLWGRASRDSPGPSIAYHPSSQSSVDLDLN
Experiment: functional cAMP assay in CHO-dhfr(minus) cells expressing human GPBAR1 receptors
Assay type: cell-based
Settings: human EC50, functional cAMP assay, 30 min at 30° C.
molecules and their reported EC50
observed-property: EC50 (nM)

molecule | observed-property | unit-string | reported
COC(=O)CNC(=O)c1ccc(-c2ccc(C(C/C(=N\O)c3ccc(=O)n(C)c3)c3ccc(Cl)cc3C)cc2)cc1 (stereo not drawn) [Example 228] | EC50 | nM | 18
Cc1cc(Cl)ccc1C(C/C(=N\O)c1ccc(=O)n(C)c1)c1ccc(C(=O)NCCO)cc1 (stereo not drawn) | EC50 | nM | 129
Cc1cc(F)ccc1[C@H](C/C(=N\O)c1ccc(=O)n(C)c1)c1ccc(Br)cc1 (single isomer, unassigned) | EC50 | nM | 5
Cc1cc(/C(C[C@H](c2ccc(-c3ccc(C(=O)O)c(F)c3)cc2)c2ccc(Cl)cc2F)=N/O)ccn1 (single isomer, unassigned) | EC50 | nM | 18
Cc1cc(/C(C[C@@H](c2ccc(N3CCC(C(=O)O)CC3)cc2)c2ccc(Cl)cc2C)=N/O)ccn1 | EC50 | nM | 4
CC(C)CC(CC(=NO)c1ccncc1)c1ccc(Br)cc1 (racemic) | EC50 | nM | 1080

---

Molecular target: human GPBAR1 receptor (Homo sapiens, UniProt Q8TDU6)
Construct: expressed in transfected cells
Assay: functional cAMP assay in CHO-dhfr(minus) cells expressing human GPBAR1 receptors
Type: cell-based
Details: human EC50, functional cAMP assay, 30 min at 30° C.

molecule | EC50 / nM
Cc1ccccc1C(CC(=NO)c1ccncc1)c1cccc(C(=O)O)c1 (racemic) | 1620
O=C(O)c1ccc(-c2ccc(C(C/C(=N\O)c3ccncc3)c3ccccc3)cc2)cc1 (stereo not shown) | 269
Cc1ccccc1[C@@H](C/C(=N\O)c1cnc(=O)n(C)c1)c1ccc(S(C)(=O)=O)cc1 | 477
Cc1cc(/C(C[C@@H](c2ccc(N3CCC(CC(=O)O)CC3)cc2)c2ccc(F)cc2F)=N/O)ccn1 (single isomer, unassigned) | 21
COC(=O)CNC(=O)c1ccc(-c2ccc(C(C/C(=N\O)c3ccc(=O)n(C)c3)c3ccc(F)cc3C)cc2)cc1 (stereo not shown) | 20
Cc1cc(Cl)ccc1C(C/C(=N\O)c1ccc(=O)n(C)c1)c1ccc(OCCO)c(F)c1 (stereo not shown) | 11
Cc1ccccc1C(C/C(=N\O)c1cc(Cl)ccc1Cl)c1ccc(Br)cc1 (single isomer, unassigned; (+)) [Example 50] | 769

---

Target: human GPBAR1 receptor (Homo sapiens, UniProt Q8TDU6)
Construct: expressed in transfected cells
Sequence (Q8TDU6 1-330): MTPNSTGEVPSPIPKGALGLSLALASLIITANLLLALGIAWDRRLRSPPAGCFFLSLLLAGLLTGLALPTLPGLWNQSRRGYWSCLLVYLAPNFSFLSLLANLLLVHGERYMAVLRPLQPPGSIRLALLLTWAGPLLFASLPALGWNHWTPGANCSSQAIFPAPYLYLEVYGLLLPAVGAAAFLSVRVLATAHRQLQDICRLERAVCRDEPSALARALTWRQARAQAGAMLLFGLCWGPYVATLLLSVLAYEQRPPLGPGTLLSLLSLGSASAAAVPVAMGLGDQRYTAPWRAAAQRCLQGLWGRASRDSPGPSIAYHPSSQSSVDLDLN
Experiment: functional cAMP assay in CHO-dhfr(minus) cells expressing human GPBAR1 receptors
Assay type: cell-based
Conditions: human EC50, functional cAMP assay, 30 min at 30° C.
compounds and their reported EC50

compound | unit-string | EC50
Cc1cc(/C(CC(c2ccc(N3CCOCC3)nc2)c2ccc(F)cc2F)=N/O)ccn1 (stereo not shown) | nM | 98
Cc1cc(/C(C[C@H](c2ccc(-c3nnc(C4CC4)o3)cc2)c2ccccc2C)=N/O)ccn1 | nM | 4
Cc1ccccc1C(C/C(=N\O)c1ccc(=O)n(C)c1)c1ccc(C(=O)NC2(CO)CC2)cc1 (stereo not shown) | nM | 592
Cc1cc(C(CC(c2cccc(-c3ccc(C(=O)O)nc3)c2)c2ccccc2C)=NO)ccn1 (racemic) | nM | 5050
Cc1ccccc1[C@H](C/C(Cc1ccccn1)=N\O)c1ccc(Br)cc1 | nM | 3210
Cc1cc(/C(C[C@H](c2ccc(C3CNC3)cc2)c2ccccc2C)=N/O)ccn1 | nM | 127
CC(C)CC(C/C(=N/O)c1ccc(=O)n(C)c1)c1ccc(Br)cc1 (stereo not shown) | nM | 4000
